- system-name: Luciferin 4-monooxygenase (Photinus pyralis)
- measurement-protocol: qHTS profiling assay for firefly luciferase inhibitor/activator using purifed enzyme and Km concentrations of substrates (counterscreen for miR-21 project); note: nearly all actives have a fitted effect of over 55% in size
- condition-label: purified FLuc, luminescence inhibition; series mostly up to 57.5 µM
The whole screen tested about 360,000 compounds, of which about 25,000 (6.9%) were called active. Not shown: some 9% with an inconclusive outcome. Calls come from the whole dose curve; as a rule, active = well fitted inhibition curve with a large enough effect; inconclusive = small, poorly fitted or top-dose-only effect; inactive = flat fitted curve, though single readings scatter. What follows is part of a selection rich in actives, with near analogues and random picks from the rest.
Tick one outcome: true for active, false for inactive

As a guide, the following entries are already answered.
Cn1c(Nc2cccc(Cl)c2)nc2ccccc21	true
CN(Cc1ccccc1)C(=O)c1cn(C)c2ccc(S(=O)(=O)N(C)C3CCCCC3)cc2c1=O	false
CCN(c1ccccc1)S(=O)(=O)c1cc(C(=O)NCc2ccccn2)ccc1C	false
Cc1c(C(=O)Nc2cccc(Cl)c2)cn2c(nc3ccccc32)c1C#N	false

// outcome(item) with item = O=C1C2C3C=CC(C3)C2C(=O)N1c1ccc(-c2nc3ccccc3c(=O)o2)cc1 (stereo not given)
true

###

- system-name: Luciferin 4-monooxygenase (Photinus pyralis)
- measurement-protocol: qHTS profiling assay for firefly luciferase inhibitor/activator using purifed enzyme and Km concentrations of substrates (counterscreen for miR-21 project); note: nearly all actives have a fitted effect of over 55% in size
- condition-label: purified FLuc, luminescence inhibition; series mostly up to 57.5 µM
- Text: MLPCN Grant: 1 R21 NS059478-01 (miR-21 grant) Assay Provider: NCGC NCGC Assay Overview: Firefly (Photinus pyralis) luciferase is one of the most commonly used transcriptional reporters for a number of reasons. […] Although light produced in a bioluminescence reaction is of lower intensity than that produced during fluorescence emission, this is offset by little to no background light inherent to luminescent assays. […]
Screen size: about 360,000 compounds; about 25,000 (6.9%) were called active. Inconclusive results (about 9%) are left out. Calls follow the shape of the dose curve; as a rule, active = well fitted inhibition curve with a large enough effect; inconclusive = small, poorly fitted or top-dose-only effect; inactive = flat fitted curve, though single readings scatter. This is one part of a sample in which actives are shown more often than they occur.
Allowed answers: yes (1) for active, no (0) for inactive

Consider the worked cases shown below.
Cc1cc(-c2ccccc2)n2nc(-c3ccccc3)cc2n1	no (0)
O=C(CC1N=C2c3ccccc3N=C(SCc3ccc(F)cc3)N2C1=O)NCc1cccs1 (stereo not given)	no (0)
COc1ccc(-c2cc(C(F)(F)F)n3nc(-c4ccccc4)cc3n2)cc1OC	no (0)
O=C(CCS(=O)(=O)c1ccccc1Cl)Nc1ccc(S(=O)(=O)Nc2ncccn2)cc1	no (0)
CC(=O)Nc1ccc(S(=O)(=O)Nc2nccc(/C=C/c3ccccc3F)n2)cc1	no (0)

Test call for this compound, please: `O=C(c1ccc2c(c1)N(Cc1ccc(Cl)cc1)C(=O)c1ccccc1S2(=O)=O)N1CCCCC1`
no (0)

Could you check what this test reported for `COc1ccc(N2CCN(S(=O)(=O)c3ccc4c(c3)N(C(C)=O)CCO4)CC2)cc1` ?
no (0)

Please let me know the test result on file for `CCNc1nc(SCCOc2ccccc2)nc(N(C)C)n1` .
no (0)

Could you please tell me the result logged for `CC(=O)NS(=O)(=O)c1ccccc1` in this assay?
no (0)

Please share the test call associated with `CC(=O)NS(=O)(=O)c1ccc(NC(=O)/C=C/c2ccccc2Cl)cc1` .
yes (1)

###

- system-name: Luciferin 4-monooxygenase (Photinus pyralis)
- measurement-protocol: qHTS profiling assay for firefly luciferase inhibitor/activator using purifed enzyme and Km concentrations of substrates (counterscreen for miR-21 project); note: nearly all actives have a fitted effect of over 55% in size; note: potency is the fitted concentration of half-maximal effect
- condition-label: purified FLuc, luminescence inhibition; series mostly up to 57.5 µM
Out of some 360,000 compounds screened, about 25,000 (6.9%) were called active. Not shown: some 9% with an inconclusive outcome. For the sample, actives were picked, then their nearest neighbours and some compounds at random.
measurement-label: Potency

Consider the reported Potency for these compounds:
Cc1cccc(N2CCN(C(=O)c3cc4c(=O)oc5ccccc5c4s3)CC2C)c1 (stereo unspecified)	inactive
Cc1nnc(NCc2ccccc2)c2c1nnn2Cc1ccc(F)cc1	inactive
CC(=O)c1sc(N)nc1C	inactive
Cc1c(/C=N/N2C(=O)C3C4C=CC(C4)C3C2=O)c2ccccc2n1C (stereo unspecified)	inactive
O=C(N/N=C/c1c[nH]c2ccccc12)c1ccccc1O	6.01 µM (active)
CC(=O)c1sc(NC(=O)c2ccc(C)cc2)nc1C	1.9 µM (active)

// each listed compound needs a value for Potency
1. Cc1ccc(S(=O)(=O)CC(=O)Nc2sc(C)c(C)c2C(N)=O)cc1
2. Cc1ccc2occ(/C=N/NC(=O)c3ccccc3C)c(=O)c2c1
3. O=C(CN1C2=NCCN2c2ccccc21)c1cccs1
4. CSc1nnc(-c2ccc(C(F)(F)F)cn2)o1
5. CC(C)(C)n1nc2c(c1NC(=O)c1cc3ccccc3o1)CSC2
6. O=C(N/N=C/c1c[nH]c2ccccc12)c1cc2ccccc2o1
7. CCC1SC(CC)C(=O)N(CC(=O)NC2CCCCC2)C1=O (stereo unspecified)
8. CCOc1ccc(CNC(=O)c2cccc(Nc3nc4ccccc4n4nnnc34)c2)cc1OC

inactive
inactive
inactive
inactive
inactive
13.5 µM (active)
inactive
inactive

###

- system-name: Luciferin 4-monooxygenase (Photinus pyralis) (UniProt P08659)
- Sequence (P08659 whole entry, looked up): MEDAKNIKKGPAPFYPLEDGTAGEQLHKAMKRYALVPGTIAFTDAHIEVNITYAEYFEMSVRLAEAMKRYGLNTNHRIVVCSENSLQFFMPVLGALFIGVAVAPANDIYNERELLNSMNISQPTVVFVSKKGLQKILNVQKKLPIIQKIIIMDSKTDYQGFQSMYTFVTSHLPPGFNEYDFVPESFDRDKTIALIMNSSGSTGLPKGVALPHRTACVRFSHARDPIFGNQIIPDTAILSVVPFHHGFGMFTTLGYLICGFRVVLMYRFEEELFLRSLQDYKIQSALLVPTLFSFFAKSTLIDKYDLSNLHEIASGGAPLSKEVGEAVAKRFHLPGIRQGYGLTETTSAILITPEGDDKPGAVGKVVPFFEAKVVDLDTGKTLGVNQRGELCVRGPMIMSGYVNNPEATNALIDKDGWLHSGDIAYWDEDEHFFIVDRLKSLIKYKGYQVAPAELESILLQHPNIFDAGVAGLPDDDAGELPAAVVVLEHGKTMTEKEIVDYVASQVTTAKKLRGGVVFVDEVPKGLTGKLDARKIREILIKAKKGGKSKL
- measurement-protocol: qHTS profiling assay for firefly luciferase inhibitor/activator using purifed enzyme and Km concentrations of substrates (counterscreen for miR-21 project); note: nearly all actives have a fitted effect of over 55% in size; note: potency is the fitted concentration of half-maximal effect
- condition-label: purified FLuc, luminescence inhibition; series mostly up to 57.5 µM
In all, about 360,000 compounds went through this assay and about 25,000 (6.9%) were called active. About 9% were inconclusive and are not listed. What follows is part of a selection rich in actives, with near analogues and random picks from the rest.
measurement-label: Potency

COc1cc(/C=C2/C(=O)ON=C2C)ccc1OCc1ccccc1F	6.75 µM (active)
Cc1ccc(Oc2c(C(F)(F)F)oc3c(CN4CCCCC4)c(O)ccc3c2=O)cc1	inactive
CC(C)CNC(=S)NC(=O)c1ccc(Cl)cc1	12 µM (active)
O=S(=O)(Nc1ccc(-n2cnnn2)cc1)c1ccc(Cl)cc1	inactive
CCOc1cc(/C=C2/C(=N)N3OC(C)=CC3=NC2=O)ccc1OC	inactive
Cn1nnc2c(N3CCN(c4ccccc4)CC3)ncnc21	inactive
CN(C(=O)COC(=O)c1ccc(Br)o1)c1c(N)n(Cc2ccccc2)c(=O)[nH]c1=O	inactive
Cc1c(Cl)cccc1NC(=O)NCCCN1CCCC1=O	inactive
COC(=O)c1ccc(NC(=O)C(C)N2C(=O)c3ccccc3C2=O)cc1 (stereo not drawn)	inactive
COc1ccc(-n2ccn(CC(=O)Nc3ccc(C)c(C)c3)c(=O)c2=O)cc1OC	inactive

For each entry beneath this line, provide reported Potency.
1. Cc1ccccc1-c1nc(CS(=O)(=O)CC(=O)Nc2cc(Cl)cc(Cl)c2)c(C)o1
2. Cc1cccc(N2CCN(C(=O)CCn3c(=O)c4cccn4c4cccnc43)CC2C)c1 (stereo not drawn)
3. Cc1ccc(S(=O)(=O)NCCC(=O)NCc2ccc(Cl)cc2)cc1C
4. COC(=O)c1ccc(/C=C2/C(=O)Oc3ccccc32)cc1
5. CCCn1c(C)cc(/C=C(\C#N)C(=O)OCC(=O)N(C)c2c(N)n(Cc3ccccc3)c(=O)[nH]c2=O)c1C

inactive
inactive
inactive
2.69 µM (active)
10.7 µM (active)

Kindly give each listed record's Potency.
1. Cc1cc(OCC(=O)N(C)c2c(N)n(Cc3ccccc3)c(=O)[nH]c2=O)c(C(C)C)cc1Cl
2. COc1cc(NC(=O)CCn2nc(C)cc2C)cc(OC)c1OC
3. O=C(CNC(=O)c1ccc(Br)o1)Nc1ccccc1
4. CC1CCCN(c2ccc(C(=O)NCCc3ccccc3)cn2)C1 (stereo not drawn)
5. CCCn1c(C)cc(/C=C(\C#N)C(=O)OCC(=O)Nc2cc(OC)c(OC)c(OC)c2)c1C
6. COc1ccc(N(C)C(=O)C2CCN(S(=O)(=O)c3cc(Br)cc4c3N(C(C)=O)CC4)CC2)cc1

["inactive", "inactive", "inactive", "7.57 µM (active)", "13.5 µM (active)", "inactive"]

Please state, for each entry, its recorded Potency.
1. O=C(c1cnn2ccccc12)N1CCc2ccccc21
2. Cn1c(=O)[nH]c(=O)c2c1[nH]c(=S)n2Cc1ccccc1
3. Cc1occc1C(=O)NNC(=S)NCC(C)C
4. Cc1c(Cl)cccc1NC(=O)Nc1ccc(C(=O)N2CCCC2)cc1
5. CS(=O)(=O)Nc1ccc(C(=O)N2CCCC2)cc1

6.75 µM (active)
inactive
inactive
5.36 µM (active)
inactive

# per-item lookup of Potency; items listed below
1. COc1ccc(Cn2cc(C(=O)c3ccc(C)cc3)c(=O)c3cc(OC)c(OC)cc32)cc1
2. COC(=O)c1ccc(OC)c(Cn2c(=O)n(Cc3ccccc3)c(=O)c3c2c2cc(OC)ccc2n3C)c1

1: inactive; 2: inactive

Give one value of Potency per listed compound.
1. c1ccc(-n2ncc3c(N4CCCC4)ncnc32)cc1
2. Cc1cccc(-n2ncc(C(=O)N3CCc4ccccc4C3)c2C2CCN(C(=O)OC(C)(C)C)CC2)c1
3. CCOC(=O)N1CCC(NC(=O)c2cnn3ccccc23)CC1
4. CCn1cc2nc(SCc3ccccc3Cl)n(CCc3ccccc3)c(=O)c2n1
5. COC(=O)c1cc(Oc2ccc(S(=O)(=O)N3CCOCC3)cc2[N+](=O)[O-])cc(C(=O)OC)c1
6. CN(CC(=O)NCCN1CCOCC1)S(=O)(=O)c1ccc(F)cc1

1. 4.26 µM (active)
2. inactive
3. inactive
4. inactive
5. inactive
6. inactive

Please state Potency for every compound in the list that follows.
1. CCN(CC)c1ccc(NS(=O)(=O)c2cc(-c3cc(C)no3)ccc2C)c(C)c1
2. CCn1c(SCC(=O)Nc2nccs2)nnc1-c1ccncc1
3. CCCn1nc(NS(=O)(=O)c2ccc(F)cc2)c2cc3ccccc3nc21
4. Oc1c(CN2CCCC2)cc(COCc2ccccc2)c2cccnc12
5. CN(CC(=O)NC(=O)Nc1ccccc1F)Cc1ccccc1
6. CN1C(=O)/C(=C/c2ccc(C(=O)NC3CCCC3)cc2)Oc2ccccc21
7. Nc1c(C(=O)O)cnn1-c1ccccc1
8. O=C(NCCc1ccccc1)c1ccc2c(c1)N(Cc1ccccc1)CCS2

1. inactive
2. inactive
3. inactive
4. inactive
5. inactive
6. inactive
7. inactive
8. inactive

What value of Potency has been reported for the following compound? `CCOC(=O)/C(C#N)=C/c1ccc(OCC(=O)Nc2ccccc2)c(OC)c1`
inactive
